# Assayed system: progesterone receptor (PR) (Homo sapiens)
# Construct: endogenous in cells
# Sequence (P06401 whole entry): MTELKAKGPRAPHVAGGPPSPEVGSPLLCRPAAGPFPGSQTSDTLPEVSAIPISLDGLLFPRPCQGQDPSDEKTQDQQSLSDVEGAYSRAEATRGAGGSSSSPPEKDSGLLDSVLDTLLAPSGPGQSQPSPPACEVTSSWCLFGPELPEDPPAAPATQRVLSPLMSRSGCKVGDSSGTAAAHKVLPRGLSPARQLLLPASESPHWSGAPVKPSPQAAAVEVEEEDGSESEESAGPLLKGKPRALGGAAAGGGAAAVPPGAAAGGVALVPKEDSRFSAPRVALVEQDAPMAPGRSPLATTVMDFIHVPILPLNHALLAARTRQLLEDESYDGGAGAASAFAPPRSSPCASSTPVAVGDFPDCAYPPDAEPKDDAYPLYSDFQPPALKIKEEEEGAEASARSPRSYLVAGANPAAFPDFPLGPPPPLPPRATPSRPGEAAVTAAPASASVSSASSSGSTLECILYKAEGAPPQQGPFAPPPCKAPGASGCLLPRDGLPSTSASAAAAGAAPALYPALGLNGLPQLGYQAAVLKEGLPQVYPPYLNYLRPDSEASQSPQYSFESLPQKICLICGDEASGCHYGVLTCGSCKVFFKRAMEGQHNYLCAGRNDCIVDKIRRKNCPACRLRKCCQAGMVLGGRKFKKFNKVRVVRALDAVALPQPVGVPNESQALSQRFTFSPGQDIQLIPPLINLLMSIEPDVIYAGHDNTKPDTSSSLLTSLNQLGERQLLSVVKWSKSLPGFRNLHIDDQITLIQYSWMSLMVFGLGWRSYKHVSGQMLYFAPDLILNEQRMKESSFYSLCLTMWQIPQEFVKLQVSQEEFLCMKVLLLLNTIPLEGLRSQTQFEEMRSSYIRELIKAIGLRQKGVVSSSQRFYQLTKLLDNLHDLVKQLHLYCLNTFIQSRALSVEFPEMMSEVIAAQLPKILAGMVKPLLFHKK
# Assay summary: T47D alkaline phosphatase (AP) potency assay
# Experimental context: agonist response; 48 h incubation; average of at least n = 3 ± SD
Metric: EC50 (nM)
Please give a number only; it is taken to be in nM.

[[record]]
sample_smiles = "CC1(C)OC(=O)Nc2ccc(-c3ccc(F)c(Cl)c3)cc21"
assayed_system = "progesterone receptor (PR) (Homo sapiens)"
result_value = 2290

[[record]]
sample_smiles = "CC1(C)OC(=S)Nc2ccc(-c3ccc(F)nc3)cc21"
assayed_system = "progesterone receptor (PR) (Homo sapiens)"
result_value = 3670

[[record]]
sample_smiles = "Cn1c(C#N)ccc1-c1ccc2c(c1)C(C)(C)OC(=S)N2"
assayed_system = "progesterone receptor (PR) (Homo sapiens)"
result_value = 0.5

[[record]]
sample_smiles = "CC1(C)OC(=S)Nc2ccc(-c3ccc(F)c(Cl)c3)cc21"
assayed_system = "progesterone receptor (PR) (Homo sapiens)"
result_value = 432


// below: EC50 requested for another compound
Which EC50 reading was recorded for the compound CC1(C)OC(=S)Nc2ccc(-c3cccnc3F)cc21 ?
4.7

* * *

# Assay summary: In vitro non-radioactive metabolite analysis and clearance in MLM
# Format: in vitro ADME, mouse
# Experimental context: mouse, mouse liver microsomes; MLM 1 mg/ml, NADPH 1 mM, 37 °C
Metric: microsomal CLint (µL/min/mg)
Please give a number only; it is taken to be in µL/min/mg.

Which microsomal CLint reading was recorded for the compound CC1(C)OC(=S)Nc2ccc(-c3cccnc3F)cc21 [Compound 2] ?
1270
